Test: Cytotoxicity, L6 cells
Details: rat
Description: Bioactivity assays. Purified octa-enniatin B, octa-beauvericin and hexa-bassianolide were tested for antiparasitic, antibacterial and antifungal bioactivity together with standards of enniatin B, beauvericin and bassianolide. […] 67/L82 (host free axenic amastigotes) to determine the IC50 values as previously described by Orhan et al. (2010) (Supplementary Table 4).9 Additionally, cytotoxicity was determined with an L6 rat-derived cell line (Supplementary Table 4). […]
pIC50: −log10 of the molar value.
The entries below come with measured pIC50 values attached.
EXPERIMENTAL_ENDPOINT: pIC50

>>> measured("CC(C)[C@H]1C(=O)O[C@H](C(C)C)C(=O)N(C)[C@@H](C(C)C)C(=O)O[C@H](C(C)C)C(=O)N(C)[C@@H](C(C)C)C(=O)O[C@H](C(C)C)C(=O)N(C)[C@@H](C(C)C)C(=O)O[C@H](C(C)C)C(=O)N1C")
5.41
>>> measured("CC(C)[C@H]1OC(=O)[C@H](Cc2ccccc2)N(C)C(=O)[C@@H](C(C)C)OC(=O)[C@H](Cc2ccccc2)N(C)C(=O)[C@@H](C(C)C)OC(=O)[C@H](Cc2ccccc2)N(C)C1=O")
5.71
>>> measured("CCCCCCCCCCCCCCCCOP(=O)([O-])OCC[N+](C)(C)C")
3.86
>>> measured("Nc1nc(N)nc(Nc2ccc([As]3SCC(CO)S3)cc2)n1 (centres unmarked)")
4.54

* * *

Test system: Bacillus subtilis STI:10880
Experiment: Antibacterial inhibition zone test, B. subtilis
Assay type: cell-based
Conditions: JMRC-No. STI:10880; Supplementary Table 5
EXPERIMENTAL_ENDPOINT: Inhibition zone diameter, Bacillus subtilis

>>> measured("CC(C)C[C@H]1C(=O)O[C@H](C(C)C)C(=O)N(C)[C@@H](CC(C)C)C(=O)O[C@H](C(C)C)C(=O)N(C)[C@@H](CC(C)C)C(=O)O[C@H](C(C)C)C(=O)N(C)[C@@H](CC(C)C)C(=O)O[C@H](C(C)C)C(=O)N1C [bassianolide]")
0
>>> measured("CC(C)[C@H]1C(=O)O[C@H](C(C)C)C(=O)N(C)[C@@H](C(C)C)C(=O)O[C@H](C(C)C)C(=O)N(C)[C@@H](C(C)C)C(=O)O[C@H](C(C)C)C(=O)N1C [enniatin B]")
"15p"
>>> measured("O=C(O)c1cn(C2CC2)c2cc(N3CCNCC3)c(F)cc2c1=O [Ciprofloxacin, ciprofloxacin]")
29
>>> measured("CC(C)[C@H]1OC(=O)[C@H](Cc2ccccc2)N(C)C(=O)[C@@H](C(C)C)OC(=O)[C@H](Cc2ccccc2)N(C)C(=O)[C@@H](C(C)C)OC(=O)[C@H](Cc2ccccc2)N(C)C1=O [beauvericin]")
18
>>> measured("CC(C)C[C@H]1C(=O)O[C@H](C(C)C)C(=O)N(C)[C@@H](CC(C)C)C(=O)O[C@H](C(C)C)C(=O)N(C)[C@@H](CC(C)C)C(=O)O[C@H](C(C)C)C(=O)N1C [hexa-bassianolide]")
10
>>> measured("CC(C)[C@H]1OC(=O)[C@H](Cc2ccccc2)N(C)C(=O)[C@@H](C(C)C)OC(=O)[C@H](Cc2ccccc2)N(C)C(=O)[C@@H](C(C)C)OC(=O)[C@H](Cc2ccccc2)N(C)C(=O)[C@@H](C(C)C)OC(=O)[C@H](Cc2ccccc2)N(C)C1=O [octa-beauvericin]")
0
